Measured values drawn from patent US12122761B2 for this set.

Each item that follows carries a reported Emax.
TGT: human cloned CHRM2 receptor (M2_CHO cells) (Homo sapiens, UniProt P08172)
Construct: expressed in transfected cells; host or cells: CHO-K1
Sequence (P08172 1-466): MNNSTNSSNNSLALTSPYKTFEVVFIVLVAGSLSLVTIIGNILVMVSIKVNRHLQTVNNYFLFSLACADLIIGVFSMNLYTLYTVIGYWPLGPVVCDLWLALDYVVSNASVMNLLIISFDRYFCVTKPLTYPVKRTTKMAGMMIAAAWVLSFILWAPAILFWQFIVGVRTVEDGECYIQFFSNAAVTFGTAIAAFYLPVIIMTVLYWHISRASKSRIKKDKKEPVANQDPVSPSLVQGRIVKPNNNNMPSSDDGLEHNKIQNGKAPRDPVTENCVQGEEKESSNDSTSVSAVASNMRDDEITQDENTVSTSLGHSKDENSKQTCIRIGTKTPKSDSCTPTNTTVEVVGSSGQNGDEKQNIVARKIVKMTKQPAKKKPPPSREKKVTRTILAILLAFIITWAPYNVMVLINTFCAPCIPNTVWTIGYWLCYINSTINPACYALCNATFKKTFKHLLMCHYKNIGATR
RUN_DESCRIPTION: CHRM2 Ca++ Flux Assay (agonist mode, FDSS 7000EX)
Type: cell-based
MEASUREMENT_PARAMETERS: Percent Activity measured to EC100 of Carbachol; read-out: M2 FDSS PA
ASSAY_METRIC: Emax (%)

{"columns": ["QUERY_SMILES", "TGT", "OBSERVED_MEASUREMENT"],
 "data": [
  ["CC(C)(F)COc1ccccc1C1CCN([C@@H]2CCC3(C2)CN(C(=O)C2COC2)C3)CC1", "human cloned CHRM2 receptor (M2_CHO cells) (Homo sapiens, UniProt P08172)", 77],
  ["COc1ccccc1C1CCN([C@@H]2CCC3(C2)CN(c2nc(C)ns2)C3)CC1", "human cloned CHRM2 receptor (M2_CHO cells) (Homo sapiens, UniProt P08172)", 0],
  ["CC(C)(O)CCOc1ccccc1C1CCN([C@@H]2CCC3(C2)CN(C(=O)C2COC2)C3)CC1", "human cloned CHRM2 receptor (M2_CHO cells) (Homo sapiens, UniProt P08172)", 0],
  ["c1ccc(C2CCN([C@@H]3CCC4(C3)CN(c3ncncn3)C4)CC2)c(OCC2CCOCC2)c1", "human cloned CHRM2 receptor (M2_CHO cells) (Homo sapiens, UniProt P08172)", 0]
]}
